- Assayed Target: T1, recombinant human TIGIT (human, UniProt Q495A1 22-141, limits assumed)
- T1 construct: also called T cell immunoreceptor with Ig and ITIM domains
- T1 sequence (looked up): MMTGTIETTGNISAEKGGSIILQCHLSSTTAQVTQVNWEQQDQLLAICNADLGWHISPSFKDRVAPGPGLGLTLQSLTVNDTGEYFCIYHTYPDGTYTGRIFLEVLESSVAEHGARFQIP
- Assay Text: SPR (Carterra), average
pKd: −log10 of the molar value.
Label true (1) when pKd is at or above 5; anything below gets false (0).

Binder	Class
TIGIT-SC157 (Fc fusion, VHH-Fc) VHH: EVQLVESGGGLVQPGGSLRLSCAASGFTFSPSWMGWFRQAPGKEREWVASVLRGGYTWYADSVKGRFTISADNSKNTAYLQMNSLKPEDTAVYYCTTEGYDFWSGYYDYWGQGTLVTVSS	false (0)
TIGIT-SC135 (Fc fusion, VHH-Fc) VHH: EVQLVESGGGLVQPGGSLRLSCAASGFAFGDSWMGWFRQAPGKEREWVASVLRGGTLRAYAVSVKGRFTISADNSKNAAYLQMNSLKPEDTAVYYCARASIVGTTTLVWGQGTLVTVSS	true (1)
TIGIT-SC196 (Fc fusion, VHH-Fc) VHH: EVQLVESGGGLVQPGGSLRLSCAASGFAFSSDWMGWFRQAPGKEREWVASVLRGGYTWYADSVKGRFTISADNSKNTAYLQMNSLKPEDTAVYYCATEGLGYWGQGTLVTVSS	false (0)
TIGIT-SC210 (Fc fusion, VHH-Fc) VHH: EVQLVESGGGLVQPGGSLRLSCAASGFLFDSYWMVWFRQAPGKEREFVAAIWRSGTLKAYADSVKGRFTISADNSKNTAYLQMNSLKPEDTAVYYCARDHRAMVAPFDYWGQGTLVTVSS	true (1)

From: patent US20260184782A1
